B1: HDV Ribozyme (parent)
chain: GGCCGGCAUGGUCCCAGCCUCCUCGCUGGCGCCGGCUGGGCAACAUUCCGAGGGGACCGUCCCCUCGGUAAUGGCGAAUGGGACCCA

variants of: B1; test: self-cleavage, relative activity (ratio to wild type); higher = more cleavage; co-transcriptional
QUANTITY_MEASURED: self-cleavage
Write the value as a bare number.

SEQUENCE_STRING: GGCCGGCAUGGUCCCAGCCUCCUCGCUGGCGCCGGCUGGGCAACAUUCCGAGGGGACCGUCCCCUCGGUAAUUGCGAAUGGGACACA [G73U C85A]
MEASUREMENT: 0.397
--
SEQUENCE_STRING: GGCCGGCAUGGUCCCAGCCCCCUCGCUGGCGCCGGCUGUGCAACAUUCCGAGGGGACCGUCCCCUCGGUAAUGGCGAAUGGGACCCA [U20C G39U]
MEASUREMENT: 0.0386
--
SEQUENCE_STRING: GGCCGGCAUGGUCCCAGCCUCCUCGCUGGCGCCGGCUGGGCAACAUUCCUAGGGGACCGUCCCCUCGGUAAUGGCGAAUGUGACCCA [G50U G81U]
MEASUREMENT: 0.341
--
SEQUENCE_STRING: GGCCGGCAUGGUCCCAGCCUCCUCGCUGGGGCCGGCUGGGCAACAUUCCAAGGGGACCGUCCCCUCGGUAAUGGCGAAUGGGACCCA [C30G G50A]
MEASUREMENT: 0.0733
--
SEQUENCE_STRING: GGCCGGCAUGGUCCCAGCCUCCUCGCUGGCGCCGGCUGGGCAACAUCCCGAGGCGACCGUCCCCUCGGUAAUGGCGAAUGGGACCCA [U47C G54C]
MEASUREMENT: 0.554

Now for another entry.
Query :: Quick check: self-cleavage of GGCCGGCAUGGUCCCAGCCUCCUCGCUGCCGCCGGCUGGGCAACAUUCCGAGGGGACCGUCCCCUCGGUAAUGGCGAAUGGCACCCA [G29C G82C] ?
Result :: 0.0739
